All figures here come from ChEMBL document CHEMBL5032512.

- test system: Peroxisome proliferator-activated receptor alpha (Homo sapiens) (UniProt Q07869)
- Sequence (whole entry): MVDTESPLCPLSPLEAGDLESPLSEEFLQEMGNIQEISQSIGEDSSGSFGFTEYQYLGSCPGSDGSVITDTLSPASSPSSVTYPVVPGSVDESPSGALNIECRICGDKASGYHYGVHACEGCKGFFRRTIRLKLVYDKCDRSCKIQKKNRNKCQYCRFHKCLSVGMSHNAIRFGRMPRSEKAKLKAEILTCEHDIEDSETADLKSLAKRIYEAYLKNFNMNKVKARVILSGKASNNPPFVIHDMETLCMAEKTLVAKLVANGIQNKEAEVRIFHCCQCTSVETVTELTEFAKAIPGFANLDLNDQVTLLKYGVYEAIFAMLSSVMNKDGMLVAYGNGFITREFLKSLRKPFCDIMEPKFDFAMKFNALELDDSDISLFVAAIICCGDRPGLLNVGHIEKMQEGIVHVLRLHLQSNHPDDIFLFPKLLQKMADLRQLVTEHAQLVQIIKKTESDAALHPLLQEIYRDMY
- assay details: Agonist activity at Gal4-fused human PPARalpha LBD transfected in HEK293T cells assessed as maximal relative activation incubated for 14 to 16 hrs by dual-Glo luciferase assay relative to GW7647
- Type: cell-based
- conditions used: time 14-16 hrs
property measured: max activation (%)

Cc1ccc(/N=N/c2ccc(OCCc3ccc(OC(C)(C)C(=O)O)cc3)cc2)cc1    24

1 = Cc1ccc(/N=N\c2ccc(OCCc3ccc(OC(C)(C)C(=O)O)cc3)cc2)cc1
2 = Cc1ccc(/N=N/c2ccc(OCCc3ccc(OC(C)(C)C(=O)O)cc3)c(C)c2)cc1
Query block: Thinking about recorded max activation values, which is higher, 1 or 2 ? Indicate which entry you chose by stating its label.
Result block: 2
(2: 34%, 1: 22%)

----------
- test system: Peroxisome proliferator-activated receptor delta (Homo sapiens)
- Sequence (Q03181 whole entry, the tested form may be a part): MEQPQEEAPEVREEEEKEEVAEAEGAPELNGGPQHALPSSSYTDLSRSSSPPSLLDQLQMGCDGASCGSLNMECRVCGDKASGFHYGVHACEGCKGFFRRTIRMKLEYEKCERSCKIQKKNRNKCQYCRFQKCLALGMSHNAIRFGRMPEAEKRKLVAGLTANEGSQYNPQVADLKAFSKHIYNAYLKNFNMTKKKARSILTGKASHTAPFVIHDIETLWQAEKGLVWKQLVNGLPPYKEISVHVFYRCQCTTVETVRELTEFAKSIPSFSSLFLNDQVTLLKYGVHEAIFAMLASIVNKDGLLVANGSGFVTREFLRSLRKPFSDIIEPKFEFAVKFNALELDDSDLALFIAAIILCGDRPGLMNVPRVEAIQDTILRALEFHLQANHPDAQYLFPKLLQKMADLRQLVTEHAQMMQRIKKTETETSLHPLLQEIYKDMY
- assay details: Agonist activity at Gal4-fused human PPARdelta LBD transfected in HEK293T cells assessed as transcriptional activation incubated for 14 to 16 hrs by dual-Glo luciferase assay
- Type: cell-based
property measured: EC50 (nM)

Known EC50 results, listed for orientation:
Cc1ccc(/N=N/c2ccc(OCCc3ccc(OC(C)(C)C(=O)O)cc3)c(C)c2)cc1    120
Cc1ccc(/N=N\c2ccc(OCCc3ccc(OC(C)(C)C(=O)O)cc3)c(C(F)(F)F)c2)cc1    410

1 = CC(C)(Oc1ccc(COc2ccc(/N=N\c3ccccc3)cc2)cc1)C(=O)O
2 = CC(C)(Oc1ccc(CCOc2ccc(/N=N/c3ccccc3)cc2Cl)cc1)C(=O)O
3 = Cc1cc(/N=N/c2ccccc2)ccc1OCCc1ccc(OC(C)(C)C(=O)O)cc1
4 = Cc1ccc(/N=N\c2ccc(OCCc3ccc(OC(C)(C)C(=O)O)cc3)c(C)c2)cc1
5 = CC(C)(Oc1ccc(CCOc2ccc(/N=N\c3ccc(Cl)cc3)cc2)cc1)C(=O)O
Query block: Arrange these compounds by their EC50, starting with the largest number. Please write the labels in the order that was asked for.
Result block: 5, 1, 4, 3, 2
(5: 8100 nM, 1: 4100 nM, 4: 800 nM, 3: 540 nM, 2: 240 nM)

----------
- test system: Peroxisome proliferator-activated receptor delta (Homo sapiens)
- assay details: Agonist activity at Gal4-fused human PPARdelta LBD transfected in HEK293T cells assessed as maximal relative activation incubated for 14 to 16 hrs by dual-Glo luciferase assay relative to L165,041
- Assay type: cell-based
- conditions used: filed as agonist, time 14-16 hrs
property measured: max activation (%)

a = CC(C)(Oc1ccc(COc2ccc(/N=N/c3ccccc3)cc2)cc1)C(=O)O
b = CC(C)(Oc1ccc(CCOc2ccc(/N=N/c3ccccc3)cc2)cc1)C(=O)O
Query block: Thinking about recorded max activation values, which is higher, a or b ? Indicate which entry you chose by stating its label.
Result block: b
